From: patent US20130190327A1

system: ApoB secretion in HepG2 cells; assay: ApoB secretion in HepG2 cells (ELISA); type: cell-based; details: Homo sapiens, incubated for 16 hours, FIG. 1, read-out: IC50 (concentration at which 50% of ApoB secretion is inhibited)
measurement.label: IC50

Could you tell me which IC50 is on file for CC/C=C\C/C=C\C/C=C\C/C=C\C/C=C\C/C=C\CCC(=O)N[C@@H](C)C(=O)O[C@H](C)[C@H](NC(=O)CCC/C=C\C/C=C\C/C=C\C/C=C\C/C=C\CC)C(=O)OC ? 9.5 µM
